Reference for the values: the Immune Epitope Database (IEDB)

target: HLA-C*05:01; experiment: IEDB peptide-MHC binding, purified MHC/direct/fluorescence; filed as Kd, often an IC50 or EC50 that approximates it; bounds were set here for any values at or beyond the usual limits of such assays; conditions: source organism: Yersinia pestis Nepal516
property.label: Kd

Request: Fill in the blank: the reported Kd of RAMKALSSI is ____.
Result: ≥ 20 µM

---

molecular target: HLA-A*31:01; assay: IEDB peptide-MHC binding, purified MHC/direct/fluorescence; filed as Kd, often an IC50 or EC50 that approximates it; bounds were set here for any values at or beyond the usual limits of such assays; conditions: source organism: Giardia lamblia ATCC 50803
property.label: pKd
Numbers only, as −log10 of the molar value.

Request: Recorded pKd of MNQERRSLR , please.
Result: 6.93

---

target: HLA-B*44:02; assay: IEDB peptide-MHC binding, purified MHC/competitive/radioactivity; filed as Kd, often an IC50 or EC50 that approximates it; bounds were set here for any values at or beyond the usual limits of such assays; conditions: source organism: Mammarenavirus brazilense
property.label: Kd (nM)
Answers are plain numbers, in nM.

Request: Query: Kd; subject: CEMNHVNSM
Result: 178

---

biological target: HLA-B*15:42; test: IEDB peptide-MHC binding, purified MHC/competitive/fluorescence; filed as Kd, often an IC50 or EC50 that approximates it; bounds were set here for any values at or beyond the usual limits of such assays; conditions: source organism: Listeria monocytogenes serotype 4b str. CLIP 80459
property.label: Kd

Request: Any idea what its Kd is? The sequence is YTYDLAEYR
Result: ≥ 5 µM

---

target: HLA-C*05:01; assay: IEDB peptide-MHC binding, purified MHC/direct/fluorescence; filed as Kd, often an IC50 or EC50 that approximates it; bounds were set here for any values at or beyond the usual limits of such assays; conditions: source organism: Escherichia coli E22
pKd: −log10 of the molar value.
property.label: pKd

Request: Please state recorded pKd (tested on HLA-C*05:01) of VADEIAFGL
Result: ≥ 9.00

---

molecular target: HLA-A*11:01; experiment: IEDB peptide-MHC binding, purified MHC/direct/fluorescence; filed as Kd, often an IC50 or EC50 that approximates it; bounds were set here for any values at or beyond the usual limits of such assays; conditions: source organism: Pasteurella multocida
property.label: Kd

Request: Quick check: Kd of SQLEMCEKY ?
Result: ≥ 20 µM

---

target: HLA-A*23:01; test: IEDB peptide-MHC binding, purified MHC/competitive/radioactivity; filed as Kd, often an IC50 or EC50 that approximates it; bounds were set here for any values at or beyond the usual limits of such assays; settings: source organism: Dengue virus 2 Peru/IQT2913/1996
property.label: Kd (nM)
Numbers only, in nM.

Request: If you can, please state the reported Kd value of IMLIPTVMAF .
Result: 82

---

target: HLA-B*83:01; test: IEDB peptide-MHC binding, purified MHC/competitive/fluorescence; filed as Kd, often an IC50 or EC50 that approximates it; bounds were set here for any values at or beyond the usual limits of such assays; settings: source organism: Salmonella enterica subsp. enterica serovar Typhi
pKd: −log10 of the molar value.
property.label: pKd

Request: // pKd lookup, key: STFDLYVYR
Result: ≤ 5.30

---

biological target: HLA-B*40:13; assay: IEDB peptide-MHC binding, purified MHC/competitive/fluorescence; filed as Kd, often an IC50 or EC50 that approximates it; bounds were set here for any values at or beyond the usual limits of such assays; details: source organism: Burkholderia pseudomallei 406e
property.label: Kd

Request: Quick one: Kd of MSWGWRLPF ?
Result: 223 nM
